Tested on: gastric cancer SGC7901 cells
measurement.protocol: Growth inhibition on tumor cells (MTT)
Assay type: cell-based
setup.conditions: Homo sapiens, SGC-7901, 48 h
reported.property: IC50
The reply should read as a number followed by its unit.

Data request: Sample C[C@]12CC[C@H](O)C[C@H]1CC[C@@H]1[C@@H]2CC[C@]2(C)[C@@H](c3ccc(=O)oc3)CC[C@]12O [bufalin, 3β,14-dihydroxy-5β, 20(22)-bufadienolide] — what was its IC50?
Data returned: 23.5 nM

====

Test system: myeloid leukemia HL-60 cells
measurement.protocol: Growth inhibition on tumor cells (MTT)
Assay type: cell-based
setup.conditions: Homo sapiens, HL60, 48 h
reported.property: pIC50
Schema: pIC50 number; meaning minus log10 of the concentration expressed in molar units.

Data request: Sample C[C@]12CC[C@H](O)C[C@H]1CC[C@@H]1[C@@H]2CC[C@]2(C)[C@@H](c3ccc(=O)oc3)CC[C@]12O [bufalin, 3β,14-dihydroxy-5β, 20(22)-bufadienolide] — what was its pIC50?
Data returned: 7.68
